system: lacZ under control of the tetA promoter (PtetA) in E. coli KM3; assay type: cell-based; conditions: Table 4; chlorimuron 20 ppm; 48 hrs at 30° C.
Value type: relative β-galactosidase activity, inducer Ci

{"Molecule": "L1-28: SU-responsive TetR(B) variant, library L1 hit (protein, Sulfonylurea responsive repressor L1-28) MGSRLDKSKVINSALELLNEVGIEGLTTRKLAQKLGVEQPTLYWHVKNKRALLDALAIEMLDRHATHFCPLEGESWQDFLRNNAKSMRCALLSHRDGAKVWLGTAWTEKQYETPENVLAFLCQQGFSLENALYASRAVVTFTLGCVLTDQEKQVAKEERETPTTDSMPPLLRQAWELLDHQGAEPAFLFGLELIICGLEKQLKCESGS", "Data value": 14.6}
{"Molecule": "L1-38: SU-responsive TetR(B) variant, library L1 hit (protein, Sulfonylurea responsive repressor L1-38) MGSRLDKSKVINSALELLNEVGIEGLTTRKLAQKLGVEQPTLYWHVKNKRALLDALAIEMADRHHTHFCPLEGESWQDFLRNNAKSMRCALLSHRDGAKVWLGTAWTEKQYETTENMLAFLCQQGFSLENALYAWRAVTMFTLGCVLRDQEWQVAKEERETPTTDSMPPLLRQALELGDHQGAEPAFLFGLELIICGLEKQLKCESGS", "Data value": 15.3}

This collection of values is drawn from patent US9206432B2.
